Sourced from PubChem BioAssay (NCI)

Entries and their measured TGI follow.
system: OVCAR-8 ovarian; assay: NCI tumour cell line growth inhibition, 48 h

>  <molecule>
CCNc1nc2c(ncn2C2CC(O)C(COP(=O)(O)O)O2)c(=O)[nH]1 (configuration not stated)

>  <value_measured>
> 100 µM

$$$$
>  <molecule>
CC(=O)[C-](C(C)=O)c1ccccc1.CC(=O)[C-](C(C)=O)c1ccccc1.CC[O-].CC[O-].[Ti+4]

>  <value_measured>
> 100 µM

$$$$
>  <molecule>
CCN(CC)Cc1cc(Nc2c3ccccc3nc3c4ccccc4n(C)c23)ccc1O

>  <value_measured>
15.6 µM

$$$$

Record request: TGI value, item CCCCN(CCCC)C(=O)C(=O)C(C)C(=O)CC (configuration not stated)
> 100 µM

What TGI value was documented for this molecule, CNC(=O)OC1C(O[C@H]2C[C@H]3[C@@H]4CC=C5C[C@@H](O)CC[C@]5(C)[C@H]4CC[C@]3(C)[C@H]2[C@H](C)C(=O)CCC(C)C)OCC(O)C1OC1OCC(O)C(O)C1OC(=O)c1ccc(OC)cc1 (some centres not stated) ?
11.2 µM

Look up TGI for this molecule: C[C@@H](Oc1ccc2[nH]nc(/C=C/c3cnn(CCO)c3)c2c1)c1c(Cl)cncc1Cl
> 32.1 µM

Using the record for CC1(C)N=C(C(=O)c2ccccc2)N(O)C1(O)c1ccccc1 (configuration not stated) , report its TGI.
> 100 µM
